All figures here come from ChEMBL document CHEMBL1139823.

Test: Metabolic stability assessed as Intrinsic clearance in human liver microsomes after 60 mins
Listing: CLint scaled at 1 h of selected compounds
The figure you give is taken to be in mL/min/kg; do not add the unit.

Q: Quickly give me recorded CLint scaled at 1 h for O=c1[nH]c(C2=C[C@@H](N3CCC(c4ccc(F)cc4)CC3)CC2)nc2c(Cl)cccc12
Ans: 17

More entries:
Q: Give the measured CLint scaled at 1 h for O=c1[nH]c(C2=C[C@@H](N3CCC(c4ccccc4)CC3)CC2)nc2c(Cl)cccc12
Ans: 22

Q: Provide only the value of recorded CLint scaled at 1 h for O=c1[nH]c(C2=CC(N3CC=C(c4ccc(F)cc4)CC3)CC2)nc2c(Cl)cccc12 (stereo not drawn)
Ans: 54

* * *

Target: Poly [ADP-ribose] polymerase 1 (Homo sapiens, UniProt P09874)
Sequence (P09874 whole entry): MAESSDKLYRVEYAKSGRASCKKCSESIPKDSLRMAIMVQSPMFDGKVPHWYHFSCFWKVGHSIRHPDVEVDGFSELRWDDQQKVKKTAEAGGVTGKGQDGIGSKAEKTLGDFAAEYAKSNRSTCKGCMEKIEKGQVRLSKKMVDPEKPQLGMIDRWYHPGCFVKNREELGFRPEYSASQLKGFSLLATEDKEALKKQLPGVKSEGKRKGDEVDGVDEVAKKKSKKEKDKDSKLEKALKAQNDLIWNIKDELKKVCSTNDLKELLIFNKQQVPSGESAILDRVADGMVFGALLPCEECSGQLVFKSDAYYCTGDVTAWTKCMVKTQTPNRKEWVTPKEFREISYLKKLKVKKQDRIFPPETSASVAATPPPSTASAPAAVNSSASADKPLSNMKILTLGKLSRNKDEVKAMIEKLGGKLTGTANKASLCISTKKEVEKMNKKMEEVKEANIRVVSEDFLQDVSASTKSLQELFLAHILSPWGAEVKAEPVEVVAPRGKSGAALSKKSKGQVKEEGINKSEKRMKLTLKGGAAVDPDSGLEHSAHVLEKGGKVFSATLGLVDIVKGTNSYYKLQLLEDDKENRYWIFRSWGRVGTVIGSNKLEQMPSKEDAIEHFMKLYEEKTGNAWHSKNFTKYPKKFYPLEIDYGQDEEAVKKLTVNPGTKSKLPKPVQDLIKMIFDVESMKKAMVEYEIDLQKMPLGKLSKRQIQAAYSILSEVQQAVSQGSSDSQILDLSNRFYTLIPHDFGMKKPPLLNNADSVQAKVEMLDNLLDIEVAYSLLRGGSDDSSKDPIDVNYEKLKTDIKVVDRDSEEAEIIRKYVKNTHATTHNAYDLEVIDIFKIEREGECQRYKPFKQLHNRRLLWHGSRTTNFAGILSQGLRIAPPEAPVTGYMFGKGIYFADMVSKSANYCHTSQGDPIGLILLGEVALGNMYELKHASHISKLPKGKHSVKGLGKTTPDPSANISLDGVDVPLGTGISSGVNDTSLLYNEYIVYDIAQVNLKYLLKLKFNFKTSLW
Property Label: pIC50
Value format note: pIC50 is -log10 of concentration (mol/L); just state the number.

Please review the entries below; each comes with its answer.
Q: Find the measured pIC50 of O=c1[nH]c(C2=C[C@H](N3CC=C(c4ccccc4)CC3)CC2)nc2c(Cl)cccc12 with Poly [ADP-ribose] polymerase 1 (Homo sapiens, UniProt P09874) as test system.
Ans: 6.54

Q: Jot down pIC50 (Poly [ADP-ribose] polymerase 1 (Homo sapiens, UniProt P09874)) of O=c1[nH]c(C2CCC(N3CCC(c4ccccc4)CC3)C2)nc2ccccc12 (stereo in doubt; trans) .
Ans: 6.26

Q: Enter measured pIC50, system Poly [ADP-ribose] polymerase 1 (Homo sapiens, UniProt P09874), for the compound shown: Cc1cccc2c(=O)[nH]c(CCCN3CC=C(c4ccc(Cl)cc4)CC3)nc12
Ans: 7.80

Q: Send back Poly [ADP-ribose] polymerase 1 (Homo sapiens, UniProt P09874) pIC50 of O=c1[nH]c(C2=CC(N3CC=C(c4ccccc4)CC3)CCC2)nc2ccccc12 (stereo not given) only.
Ans: 6.80

Continue with the compound presented below.
Q: State pIC50 (Poly [ADP-ribose] polymerase 1 (Homo sapiens, UniProt P09874)) of O=c1[nH]c([C@H]2CC[C@H](N3CC=C(c4ccccc4)CC3)CC2)nc2ccccc12 .
Ans: 5.08

* * *

Test: Drug level in mouse brain at 32 mg/kg, po after 2.0 hrs
Assay type: ADME, organism-based
Parameters: dose 32 mg/kg, route oral
Conditions: read-out: Drug uptake
Threshold 8000 ng/g: concentration at 2 h strictly smaller gives 1 (yes), otherwise 0 (no).

Consider the worked cases shown below.
Q: Take the compound O=c1[nH]c(CCCN2CC=C(c3ccc(F)cc3)CC2)nc2c(Cl)cccc12 and say whether its concentration at 2 h is less than 8000 ng/g.
Ans: 1 (yes)

Q: Does O=c1[nH]c(C2=C[C@@H](N3CCC(c4ccc(F)cc4)CC3)CC2)nc2c(Cl)cccc12 have concentration at 2 h strictly under 8000 ng/g?
Ans: 0 (no)

---
Q: Lab log: compare recorded concentration at 2 h with 8000 ng/g; is it strictly lower for O=c1[nH]c(CCCN2CCC(c3ccccc3)CC2)nc2c(Cl)cccc12 ?
Ans: 1 (yes)

Q: Please state whether concentration at 2 h is below 8000 ng/g for O=c1[nH]c(C2=C[C@@H](N3CC=C(c4ccccc4)CC3)CC2)nc2c(Cl)cccc12
Ans: 1 (yes)

Q: Does O=c1[nH]c(CCCN2CC=C(c3ccccc3)CC2)nc2c(Cl)cccc12 have concentration at 2 h strictly under 8000 ng/g?
Ans: 0 (no)
